- assayedSystem: T1, monkey GPC3-His protein (monkey)
- T1 construct: Bought recombinant protein; also called monkey GPC3 protein
- procedureText: ELISA, monkey GPC3-His coated;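 note: Plate-coated antigen at 1 µg/mL, antibody binding 2 h at 37 °C, detected with HRP-labeled secondary antibody and TMB, absorbance at 450 nm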
Below, each entry is listed with its recorded OD450 at 1 nM.
Give the number; OD450 is assumed, so skip it.

F4.26.1 (antibody, human IgG1, kappa, V domains shown, Human-murine chimeric antibody) VH: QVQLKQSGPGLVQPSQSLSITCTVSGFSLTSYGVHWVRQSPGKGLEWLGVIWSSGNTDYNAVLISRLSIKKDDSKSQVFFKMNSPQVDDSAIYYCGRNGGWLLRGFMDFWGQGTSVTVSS VL: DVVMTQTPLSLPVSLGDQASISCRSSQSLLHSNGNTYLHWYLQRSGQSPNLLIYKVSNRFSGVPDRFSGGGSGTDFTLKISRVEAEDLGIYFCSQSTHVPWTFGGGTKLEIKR ... 1.38

Problem: Assign OD450 at 1 nM to the following record: F1.62.9 (antibody, human IgG1, kappa, V domains shown, Human-murine chimeric antibody) VH: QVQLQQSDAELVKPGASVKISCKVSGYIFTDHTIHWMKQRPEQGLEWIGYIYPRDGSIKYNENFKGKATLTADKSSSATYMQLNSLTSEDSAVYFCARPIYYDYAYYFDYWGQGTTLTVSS VL: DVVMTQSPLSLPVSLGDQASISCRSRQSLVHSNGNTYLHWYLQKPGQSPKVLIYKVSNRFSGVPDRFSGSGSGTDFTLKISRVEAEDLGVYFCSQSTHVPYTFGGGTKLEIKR
Result: 0.64
